# Target Entity: the molecule itself
# Test Summary: temperature titration with SDS-PAGE
Readout Type: binding result

* OmpC_(R92A) (natural protein, E. coli, UniProt P06996 22-367, looked up) AEVYNKDGNKLDLYGKVDGLHYFSDNKDVDGDQTYMRLGFKGETQVTDQLTGYGQWEYQIQGNSAENENNSWTRVAFAGLKFQDVGSFDYGANYGVVYDVTSWTDVLPEFGGDTYGSDNFMQQRGNGFATYRNTDFFGLVDGLNFAVQYQGKNGNPSGEGFTSGVTNNGRDALRQNGDGVGGSITYDYEGFGIGGAISSSKRTDAQNTAAYIGNGDRAETYTGGLKYDANNIYLAAQYTQTYNATRVGSLGWANKAQNFEAVAQYQFDFGLRPSLAYLQSKGKNLGRGYDDEDILKYVDVGATYYFNKNMSTYVDYKINLLDDNQFTRDAGINTDNIVALGLVYQF | binds
